test system: NCI-H522 lung; assay: NCI tumour cell line growth inhibition, 48 h
propertyLabel: log10(TGI) (log10 of the value in µM)

compound: C=C(C[N+](C)(C)C)N/N=C/c1oc(-c2ccc(OC)c(OC)c2)c(-c2ccc(OC)c(OC)c2)c1[N+](=O)[O-]
log10(TGI): 1.66

compound: CCOC(=O)/N=c1\ssc(Cl)c1Cl
log10(TGI): 1.98

compound: CC(C)(C)OC(=O)n1c(Cl)c(C(=O)N=C=S)c2ccccc21
log10(TGI): 1.58

compound: COc1ccc(-c2nn(-c3cccc(Cl)c3)cc2-c2cc(-c3cccs3)no2)cc1
log10(TGI): 1.26

compound: CN(C)CN1C(=O)/C(=N\n2c(-c3ccncc3)n[nH]c2=S)c2ccccc21
log10(TGI): 1.65

compound: COC12C=C/C(=C(/C(=O)OCc3csc(SC)n3)C(=O)CCCCCCCCC3(OC)C=C/C(=C(/C(=O)OCc4cnc(SC)s4)C(=O)CCCCCCCC1)O3)O2 (centres undefined)
log10(TGI): 1.32

compound: COc1ccc(-c2conc2-c2ccccc2)cc1
log10(TGI): 1.20

compound: Clc1sc(Cl)c2c1[C@H](Br)C[C@@H]2Cl
log10(TGI): 1.53

compound: CN1C2CCC1C(CO)C(=O)C2 (centres undefined)
log10(TGI): 1.53

compound: CC(C)(C)c1cc(C(=O)O)c(C(c2ccccc2)c2ccccc2C(=O)O)c(C(=O)O)c1 (centres undefined)
log10(TGI): 0.71

compound: CCCCCCCCCCCCNC(=O)[C@H]1CSC(c2ccsc2)N1 (some centres undefined)
log10(TGI): 1.07

compound: CC(C)(C)C#CI1OC(=O)c2ccccc21
log10(TGI): 0.58

compound: CCOc1cccc(/C=N/NC(=O)Cc2ccc(Nc3ccnc(C(F)(F)F)c3)cc2)c1O
log10(TGI): 1.52

compound: Cc1cc2c(-c3nc4ccccn4c3NC34CC5CC(CC(C5)C3)C4)c(O)c(O)cc2c(O)c1-c1c(C)cc2c(-c3nc4ccccn4c3NC34CC5CC(CC(C5)C3)C4)c(O)c(O)cc2c1O
log10(TGI): 0.55

compound: CC1=NN(c2cccc(Cl)c2)C2(C1=Cc1ccc(N(C)C)cc1)C(Cl)C(=O)N2c1nc2ccccc2s1 (centres undefined)
log10(TGI): 1.63

compound: CC1OC2OC3C(OCC(O)C3O)OC(=O)[C@]34CCC(C)(C)CC3C3=CCC5[C@@]6(C)C[C@H](O)[C@H](OC7OC(CO)C(O)C(O)C7OC7OC(COC(=O)CC(C)(O)CC(=O)OC1C(OC1OC(CO)C(O)C(O)C1O)C2O)C(O)C(O)C7O)[C@@](C)(CO)C6CC[C@@]5(C)[C@]3(C)CC4 (some centres undefined)
log10(TGI): 0.77

compound: O=c1n(CCCN2CCOCC2)nc2n1-c1ccc3ccccc3c1SC2
log10(TGI): 1.72

compound: NC1(C(=O)O)CSSC1
log10(TGI): 1.25
